Values were extracted from paper PMC3831274.

measurement.target: CYP450 3A4 (Homo sapiens)
Sequence (P08684 whole entry): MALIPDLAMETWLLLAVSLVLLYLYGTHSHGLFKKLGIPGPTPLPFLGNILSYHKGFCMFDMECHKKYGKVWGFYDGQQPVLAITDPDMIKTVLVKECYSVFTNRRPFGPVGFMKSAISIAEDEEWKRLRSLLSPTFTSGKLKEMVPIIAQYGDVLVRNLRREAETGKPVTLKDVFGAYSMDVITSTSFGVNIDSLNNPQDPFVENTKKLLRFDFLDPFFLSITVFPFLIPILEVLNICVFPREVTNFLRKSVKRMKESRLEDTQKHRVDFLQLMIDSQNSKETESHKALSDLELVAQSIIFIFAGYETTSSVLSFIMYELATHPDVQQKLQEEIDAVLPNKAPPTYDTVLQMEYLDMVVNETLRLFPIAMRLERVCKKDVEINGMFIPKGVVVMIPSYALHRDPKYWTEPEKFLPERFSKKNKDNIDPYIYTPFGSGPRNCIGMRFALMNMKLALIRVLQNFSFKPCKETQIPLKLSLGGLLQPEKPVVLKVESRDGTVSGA
assay.metric: IC50

• CCN1CCN(C(c2ccc(C(F)(F)F)cc2)c2cc(Cl)c3cccnc3c2O)CC1 (stereo not shown) = > 10 µM

###

measurement.target: CYP450 2C9 (Homo sapiens, UniProt P11712)
Sequence (P11712 whole entry): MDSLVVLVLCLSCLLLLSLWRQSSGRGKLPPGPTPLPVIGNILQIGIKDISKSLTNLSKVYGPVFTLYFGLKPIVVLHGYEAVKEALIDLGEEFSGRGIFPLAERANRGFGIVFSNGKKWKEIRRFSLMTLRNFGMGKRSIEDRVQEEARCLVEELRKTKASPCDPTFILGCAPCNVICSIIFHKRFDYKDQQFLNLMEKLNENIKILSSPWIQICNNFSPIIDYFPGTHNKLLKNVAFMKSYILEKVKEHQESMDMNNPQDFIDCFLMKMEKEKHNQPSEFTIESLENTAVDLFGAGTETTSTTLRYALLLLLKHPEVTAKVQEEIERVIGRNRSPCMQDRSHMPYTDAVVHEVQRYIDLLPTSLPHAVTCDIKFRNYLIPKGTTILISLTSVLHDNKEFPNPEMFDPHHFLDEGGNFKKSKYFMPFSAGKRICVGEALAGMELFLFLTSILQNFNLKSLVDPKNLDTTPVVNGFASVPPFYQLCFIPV
test: CYP450 inhibition 2C9
Format: in vitro ADME
pIC50: −log10 of the molar value.
assay.metric: pIC50

- CCN1CCN(C(c2ccc(C(F)(F)F)cc2)c2cc(Cl)c3cccnc3c2O)CC1 (stereo not shown): < 5.00

###

measurement.target: CYP450 1A2 (Homo sapiens, UniProt P05177)
Sequence (P05177 whole entry): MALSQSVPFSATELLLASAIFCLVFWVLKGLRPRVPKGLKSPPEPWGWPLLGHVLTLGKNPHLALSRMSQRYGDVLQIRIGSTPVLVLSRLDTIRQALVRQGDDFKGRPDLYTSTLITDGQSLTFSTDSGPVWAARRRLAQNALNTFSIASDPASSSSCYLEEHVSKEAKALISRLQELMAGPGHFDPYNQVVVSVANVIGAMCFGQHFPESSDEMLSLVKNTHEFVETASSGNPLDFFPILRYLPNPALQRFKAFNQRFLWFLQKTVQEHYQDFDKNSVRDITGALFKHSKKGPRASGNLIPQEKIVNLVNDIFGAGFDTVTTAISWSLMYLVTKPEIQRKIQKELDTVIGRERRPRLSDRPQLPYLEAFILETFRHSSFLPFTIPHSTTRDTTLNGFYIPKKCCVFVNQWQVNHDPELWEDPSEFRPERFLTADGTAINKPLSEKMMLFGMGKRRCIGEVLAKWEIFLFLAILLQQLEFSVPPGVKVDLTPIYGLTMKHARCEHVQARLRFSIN
assay.metric: IC50

* CCN1CCN(C(c2ccc(C(F)(F)F)cc2)c2cc(Cl)c3cccnc3c2O)CC1 (stereo not shown) | > 10 µM
